Where do the numbers come from? From patent US20260138978A1.

- TGT: human mAChRM1 (Homo sapiens, UniProt P11229)
- Construct: host or cells: CHO-K1
- PROTOCOL: mAChR M1 cell-based functional assay (calcium mobilization), positive allosteric modulator activity: increase in the EC20 acetylcholine response
- APPLIED CONDITIONS: increase in the EC20 acetylcholine response, read-out: PAM Activity Human M1 EC50
PARAMETER: EC50 (µM)

CC(C)c1cnc2c(c1)C(=O)N(Cc1c(F)cc(-c3ccc(C(C)(C)O)c4nn(C)cc34)cc1F)C2; 5.1
Cc1cc(-c2ccc(C(C)(C)O)cc2)cc(F)c1CN1Cc2cccnc2C1=O; 1.65
Cc1cc(-c2ccc(C(C)(C)O)cc2)ccc1CN1Cc2ncccc2C1=O; 5.94
Cn1ncc2c(-c3cc(F)c(CN4Cc5ncccc5C4=O)c(F)c3)ccc(C(C)(C)O)c21; 1.21
Cc1cc(-c2ccc(C(C)(C)O)c3nn(C)cc23)ccc1CN1Cc2ncccc2C1=O; 0.278
Cn1cc2c(-c3ccc(CN4Cc5cccc(F)c5C4=O)c(F)c3F)ccc(C(C)(C)O)c2n1; 1.21

(A) CC(C)(O)c1cc(-c2cc(F)c(CN3Cc4ncccc4C3=O)c(F)c2)cc2cccnc12
(B) [2H]C([2H])([2H])C(O)(c1ccc(-c2cc(F)c(CN3Cc4ncccc4C3=O)c(F)c2)c2cn(C)nc12)C([2H])([2H])[2H]
Return label of the item with the larger EC50. Candidates: A , B . // caller expects the label of the chosen entry
A
(A: 0.472 µM, B: 0.076 µM)

----------
- TGT: human mAChRM1 (Homo sapiens)
- Construct: host or cells: CHO-K1
- PROTOCOL: mAChR M1 cell-based functional assay (calcium mobilization), positive allosteric modulator activity: increase in the EC20 acetylcholine response
- APPLIED CONDITIONS: increase in the EC20 acetylcholine response, read-out: PAM Activity Human M1 EC50
- Procedure: Chinese hamster ovary (CHO-K1) cells stably expressing rat (r)M1 were purchased from the American Type Culture Collection and cultured according to their indicated protocol. […] Calcium flux was measured using the Functional Drug Screening System (FDSS) 6000 (Hamamatsu Corporation, Tokyo, Japan) as an increase in the fluorescent static ratio. […] Agonist activity was analyzed as a concentration-dependent increase in calcium mobilization upon compound addition. […]
PARAMETER: EC50 (nM)

Cn1cc2c(-c3cc(Cl)c(CN4Cc5ncccc5C4=O)c(C4CC4)c3)ccc(C(C)(C)O)c2n1; 147

(I) Cc1cc(-c2cc(C(C)(C)O)c3nn(C)cc3c2)cc(F)c1CN1Cc2ncccc2C1=O
(II) [2H]C([2H])([2H])C(O)(c1ccc(-c2cc(F)c(CN3Cc4cccc(F)c4C3=O)c(F)c2)c2cn(C)nc12)C([2H])([2H])[2H]
From the items above, decide which of I and II has the lower EC50 reading. // caller expects the label of the chosen entry
II
(II: 136 nM, I: 784 nM)

----------
- TGT: human mAChRM1 (Homo sapiens, UniProt P11229)
- Construct: host or cells: CHO-K1
- Sequence (P11229 1-460): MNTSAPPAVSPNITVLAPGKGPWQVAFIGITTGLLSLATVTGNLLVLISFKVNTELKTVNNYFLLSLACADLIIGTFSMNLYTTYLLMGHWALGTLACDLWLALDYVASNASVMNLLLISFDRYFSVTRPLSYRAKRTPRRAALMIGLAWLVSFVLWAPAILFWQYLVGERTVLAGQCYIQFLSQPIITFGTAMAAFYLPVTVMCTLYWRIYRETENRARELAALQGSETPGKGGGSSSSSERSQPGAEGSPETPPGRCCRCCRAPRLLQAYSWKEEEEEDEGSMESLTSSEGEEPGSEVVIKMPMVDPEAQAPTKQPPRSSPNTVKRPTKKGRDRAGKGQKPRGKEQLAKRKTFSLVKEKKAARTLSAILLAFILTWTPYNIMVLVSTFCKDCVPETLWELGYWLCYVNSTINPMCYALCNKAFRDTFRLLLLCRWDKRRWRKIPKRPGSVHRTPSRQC
- PROTOCOL: mAChR M1 cell-based functional assay (calcium mobilization), positive allosteric modulator activity: increase in the EC20 acetylcholine response
- APPLIED CONDITIONS: PAM mode
PARAMETER: Emax (%)

Cn1cc2c(-c3cc(F)c(CN4Cc5ncccc5C4=O)cc3F)ccc(C(C)(C)O)c2n1 [Compound 62]; 73
Cn1cc2cc(-c3cc(F)c(CN4Cc5cccc(F)c5C4=O)c(F)c3)cc(C(C)(C)O)c2n1 [Compound 155]; 75
Cc1nc2c(-c3cc(F)c(CN4Cc5ncccc5C4=O)c(F)c3)ccc(C(C)(C)O)n2n1 [Compound 115]; 89
[2H]C1([2H])c2ncccc2C(=O)N1Cc1c(F)cc(-c2ccc(C(C)(C)O)c3nn(C)cc23)cc1C1CCCC1 [Compound 152]; 74
CC(C)(O)c1ccc(-c2cc(F)c(CN3Cc4cccnc4C3=O)c(Cl)c2)cc1 [Compound 120]; 66
CCn1cc2c(-c3cc(F)c(CN4Cc5ncccc5C4=O)c(F)c3)ccc(C(C)(C)O)c2n1 [Compound 99]; 85
Cn1cc2c(-c3ccc(CN4Cc5ncccc5C4=O)c(F)c3)cc(C(C)(C)O)cc2n1 [Compound 26]; 83
Cn1cc2c(-c3cc(F)c(CN4Cc5ncccc5C4=O)c(F)c3)ccc(C(O)(C3CC3)C3CC3)c2n1 [Compound 84]; 84
[2H]C1([2H])c2ncccc2C(=O)N1Cc1c(C)cc(-c2ccc(C(C)(C)O)c3nn(C([2H])([2H])[2H])cc23)cc1F (single isomer, unassigned) [Compound 146]; 65
[2H]C([2H])([2H])C(O)(c1ccc(-c2cc(F)c(CN3Cc4ncccc4C3=O)c(F)c2)c2cn(C)nc12)C([2H])([2H])[2H] [Compound 93]; 83
[2H]C1([2H])c2ncccc2C(=O)N1Cc1c(F)cc(-c2ccc(C(C)(C)O)c3nn(C)cc23)cc1F [Compound 142]; 87
Cc1cc(-c2cn(C)nc2C(C)(C)O)cc(F)c1CN1Cc2ncccc2C1=O [Compound 30]; 51
Cn1cc2c(-c3cc(F)c(CN4Cc5ncccc5C4=O)c(F)c3)ccc(C3(O)COC3)c2n1 [Compound 89]; 82
Cc1cc(-c2ccc(C(C)(C)O)c3nn(C)cc23)cc(F)c1CN1Cc2cccnc2C1=O [Compound 123]; 84
Cn1cc2c(-c3cc(Cl)c(CN4Cc5ncccc5C4=O)c(Cl)c3)ccc(C(C)(C)O)c2n1 [Compound 64]; 63

----------
- TGT: human mAChRM1 (Homo sapiens, UniProt P11229)
- Construct: host or cells: CHO-K1
- PROTOCOL: mAChR M1 cell-based functional assay (calcium mobilization), agonist activity upon compound addition, Emax relative to acetylcholine maximum
- APPLIED CONDITIONS: relative to the maximum for acetylcholine
PARAMETER: Emax (%)

Cn1cc2c(-c3ccc(CN4Cc5cccnc5C4=O)c(F)c3)ccc(C(C)(C)O)c2n1 [Compound 130]; 12

(A) CC[C@](C)(O)c1ccc(-c2cc(F)c(CN3Cc4ncccc4C3=O)c(F)c2)c2cn(C)nc12 [Compound 103]
(B) Cc1cc(-c2ccc(C(C)(C)O)c3nn(C)cc23)ccc1CN1Cc2ncccc2C1=O [Compound 58]
(C) COCCOc1cc(-c2ccc(C(C)(C)O)c3nn(C)cc23)cc(F)c1CN1Cc2cccnc2C1=O [Compound 126]
(D) Cc1cc(-c2ccc(C(C)(C)O)c3nn(C)cc23)cc(F)c1CN1Cc2ncccc2C1=O [Compound 2]
Arrange the 4 compounds from largest to smallest Emax. Provide your answer as the labels ordered per the instruction.
C, D, B, A

(P) [2H]C1([2H])c2ncccc2C(=O)N1Cc1c(C)cc(-c2ccc(C(C)(C)O)c3nn(C)cc23)cc1F (single isomer, unassigned) [Compound 144]
(Q) Cn1cc2c(-c3cc(F)c(CN4Cc5cccnc5C4=O)c(F)c3)ccc(C(C)(C)O)c2n1 [Compound 121]
(R) CC(C)(O)c1cc2c(-c3cc(F)c(CN4Cc5ncccc5C4=O)c(F)c3)cccn2n1 [Compound 107]
(S) Cn1cc2c(-c3cc(Cl)c(CN4Cc5ncccc5C4=O)c(C4CC4)c3)ccc(C(C)(C)O)c2n1 [Compound 67]
Task for the reader: rank each entry by its Emax, from the minimum upward. Provide your answer as the labels ordered per the instruction.
R, Q, S, P

(I) [2H]C([2H])([2H])n1cc2c(-c3cc(F)c(CN4Cc5ncccc5C4=O)c(C4CC4)c3)ccc(C(C)(C)O)c2n1 (single isomer, unassigned) [Compound 16]
(II) [2H]C1([2H])c2ncccc2C(=O)N1Cc1c(F)cc(-c2ccc(C(C)(C)O)c3nn(C)cc23)cc1F [Compound 142]
(III) Cn1cc2cc(-c3cc(F)c(CN4Cc5ncccc5C4=O)c(C4CC4)c3)cc(C(C)(C)O)c2n1 [Compound 88]
Task for the reader: rank each entry by its Emax, from the minimum upward. Provide your answer as the labels ordered per the instruction.
III, II, I
(III: 21%, II: 31%, I: 54%)

(1) Cn1cc2c(-c3cc(F)c(CN4Cc5cccnc5C4=O)c(C4CCCC4)c3)ccc(C(C)(C)O)c2n1 [Compound 136]
(2) Cn1cc2c(-c3cc(F)c(CN4Cc5ncncc5C4=O)c(F)c3)ccc(C(C)(C)O)c2n1 [Compound 139]
Return label of the item with the larger Emax. Candidates: 1 , 2 . // caller expects the label of the chosen entry
2
